Experiment: qHTS of pediatric cancer cell lines to identify multiple opportunities for drug repurposing: Primary screen for BT-37 cells (AID 1347094)
Conditions: BT-37 viability, CellTiter-Glo luminescence, 48 h; series mostly up to 57.3 µM
Inconclusive results are not listed. Calls of active or inactive are those of the source. The call rests on the fitted dose curve; in most records, active means well fitted cell-killing curve with a large enough effect; inconclusive means small, poorly fitted or top-dose-only effect; inactive means flat fitted curve, though single readings scatter.
Outcome field: choose from Y (active), N (inactive)

# COMPOUND, GROUP LABEL
measured = [
    ("Cc1n[nH]c(C)c1Cc1sc2c(c1C(=O)N1C[C@H](O)CO1)c(=O)n(C)c(=O)n2CC(C)C", "N"),
    ("O=C(O)COCCN1CCN(C(c2ccccc2)c2ccc(Cl)cc2)CC1 (centres undefined)", "N"),
    ("Cc1cc([C@@H](C)Nc2ccccc2C(=O)O)c2nc(N3CCOCC3)cc(=O)n2c1", "Y"),
    ("COc1cc2nccc(Oc3ccc(NC(=O)NC4CC4)c(Cl)c3)c2cc1C(N)=O", "Y"),
    ("C[C@@H]1CN(Cc2ccc(F)cc2)[C@@H](C)CN1C(=O)c1cc2c(C(=O)C(=O)N(C)C)cn(C)c2cc1Cl", "N"),
]

Test call for this compound, please: "Cc1c(CN2CCN(C(=O)C(C)C)CC2)sc2c(N3CCOCC3)nc(-c3cnc(N)nc3)nc12"
Y

# iterate: "NC(N)=NC(=O)c1nc(Cl)c(N)nc1N"
N

# iterate: "CCOc1cc(N2CCC(O)CC2)ccc1Nc1ncc2c(n1)N(C)c1ccccc1C(=O)N2C"
Y

# iterate: "Cc1csc(NC(=O)c2sc3nc4c(c(C(F)(F)F)c3c2N)CCC4)n1"
Y

---

Experiment: Quantitative High-Throughput drug screen in 47 multiple myeloma cell lines against the NCATS MIPE library collection: AMO1_DSMZ cell viability assay (AID 1918927; further: nearly all actives have a fitted effect of over 30% in size)
Conditions: AMO1 myeloma cells viability, CellTiter-Glo ATP luminescence, 48 h; series mostly up to 45.8 µM
Records with an inconclusive call do not appear. Calls of active or inactive are those of the source. The call rests on the fitted dose curve; in most records, active means well fitted cell-killing curve with a large enough effect; inconclusive means small, poorly fitted or top-dose-only effect, or effect the other way; inactive means no such curve, though single readings can be large or run the other way.
Outcome field: choose from active, inactive

Use these answered entries as a reference point.
# COMPOUND, GROUP LABEL
measured = [
    ("NNCCc1ccccc1", "active"),
    ("CCN(CC)CCCC(C)Nc1nc(C)cc(Nc2ccc3nc(C)cc(N)c3c2)n1 (stereo unspecified)", "inactive"),
    ("CCOC(=O)N1CCC(=C2c3ccc(Cl)cc3CCc3cccnc32)CC1", "inactive"),
    ("O=C1CCCC2=C1C(c1[nH]ncc1Cl)N=C(Nc1nc3ccccc3o1)N2 (stereo unspecified)", "inactive"),
    ("CC(C[N+](C)(C)C)OC(N)=O (stereo unspecified)", "inactive"),
]

Test call for this compound, please: "Cc1csc(NC(=O)c2sc3nc4c(c(C(F)(F)F)c3c2N)CCC4)n1"
inactive

---

Assay: Primary qHTS for inhibitors of La Crosse Virus (LACV) - induced cell death in SH-SY5Y cells (AID 1508616);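 further: top concentration of the series differs between compounds; higher means more rescue of cells from virus-induced death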
Conditions: SH-SY5Y LACV cytopathicity rescue, ATP luminescence, 6 d; series mostly up to 4.29 µM
Records with an inconclusive call do not appear. Calls of active or inactive are those of the source. The call rests on the fitted dose curve; in most records, active means well fitted inhibition curve with a large enough effect; inconclusive means small, poorly fitted or top-dose-only effect; inactive means no such curve, though single readings can be large or run the other way.
QUANTITY MEASURED: outcome

# COMPOUND, QUANTITY MEASURED, READOUT VALUE
records = [
    ("CC(C)C[C@H](NC(=O)[C@@H](O)[C@H](N)Cc1ccccc1)C(=O)O", "outcome", "inactive"),
    ("CCN(CC)CCCC(C)Nc1ccnc2cc(Cl)ccc12 (stereo not drawn)", "outcome", "inactive"),
    ("NCCCC(N)(C(=O)O)C(F)F (stereo not drawn)", "outcome", "inactive"),
    ("CN1CCN(CCCN2c3ccccc3Sc3ccc(C(F)(F)F)cc32)CC1", "outcome", "inactive"),
    ("CNC[C@H](O)c1cccc(O)c1", "outcome", "inactive"),
]

Name the reported outcome value associated with the compound "Cc1cccc(-c2[nH]c(C(C)(C)C)nc2-c2ccc3nccnc3c2)n1"
inactive

# iterate: "CC(C)(Sc1ccc(CCN(CCCCC2CCCCC2)C(=O)NC2CCCCC2)cc1)C(=O)O"
inactive

# iterate: "CCCc1nn(C)c2c(=O)[nH]c(-c3cc(S(=O)(=O)N4CCN(C)CC4)ccc3OCC)nc12"
inactive

# iterate: COc1ccc2nc(S(=O)Cc3ncc(C)c(OC)c3C)[nH]c2c1 (stereo not drawn)
inactive

# iterate: "O=C(Nc1nc2ccccc2n1CCN1CCOCC1)c1cccc([N+](=O)[O-])c1"
inactive

# iterate: "N[C@@H]1CONC1=O"
inactive

# iterate: "O=C1CCc2cc(OCCCCc3nnnn3C3CCCCC3)ccc2N1"
inactive

# iterate: "Cc1[nH]c(=O)c(C#N)cc1-c1ccc2nccn2c1"
inactive

meta.source: PubChem BioAssay (NCATS)
